- System: PC-3 prostate
- ASSAY_PROTOCOL: NCI-60 one-dose screen, 48 h
- EXPERIMENTAL_CONTEXT: 10 µM unless noted
About 83,000 compounds went through this panel and 20% of them were active in at least one assay; those are over-represented in the sample as a whole. Activity calls are given as the source filed them. How the source made its calls: active means growth percent below 10; inactive means the rest.
Possible outcomes: active, inactive

COMPOUND	ASSAYED_SYSTEM	ANSWER_LABEL
O=C(N/N=C(\CS(=O)(=O)c1ccccc1)c1cc2ccccc2oc1=O)c1ccccc1	PC-3 prostate	inactive
Cc1cc(C)c(S(=O)O)c(C)c1	PC-3 prostate	inactive
O=c1c2c(=NCCN3CCCC3)cc3c(=O)n(CCCN4CCOCC4)c(=O)c4ccc(c(O)n1CCCN1CCOCC1)c2c4-3	PC-3 prostate	active
O=C(NC1CC1)c1cc2n(n1)CC(c1ccccc1)N2 (centres undefined)	PC-3 prostate	inactive
COc1ccc(C2=NOC(CC(=O)N(CCO)CCO)C2)cc1OC1CCCC1 (centres undefined)	PC-3 prostate	inactive
CC[Si](CC)(CC)OC1[C@@H](O[Si](CC)(CC)CC)[C@@H](CNC(=O)NC)O[C@H]1n1cnc2c(NC(=O)Nc3ccccc3)ncnc21 (some centres undefined)	PC-3 prostate	inactive
COc1cc(-c2nc(SC(C)C)nc(Nc3ccccc3C)c2C#N)cc(OC)c1OC	PC-3 prostate	inactive
CC1=C(C/C=C(\C)CCC[C@H](C)CCC[C@H](C)CCCC(C)C)C(=O)c2ccccc2C1=O	PC-3 prostate	inactive
CCOC(=O)c1cnn(CC(O)c2ccc(F)cc2)c1NC(=O)Nc1ccccc1F (centres undefined)	PC-3 prostate	inactive
O=C(N/N=C(\CS(=O)(=O)c1ccccc1)c1cc2cc(Br)ccc2oc1=O)c1ccccc1	PC-3 prostate	inactive
Cc1cc(O)cc2c1[C@H]1CC[C@]3(C)[C@@H](O)CC[C@H]3[C@@H]1C=C2	PC-3 prostate	inactive
Cc1ccc(N(CSc2ccc(Cl)cc2)CSc2ccc(Cl)cc2)cc1	PC-3 prostate	inactive
COc1ccc(-c2c3c(N)c4c(nc3nc3c2c(C)nn3-c2ccccc2)CCCCC4)cc1	PC-3 prostate	inactive
COc1ccc(-c2[nH]ncc2Nc2cc(OC)c(OC)c(OC)c2)cc1	PC-3 prostate	inactive
Brc1ccc(SCN(CSc2ccc(Br)cc2)Cc2ccccc2)cc1	PC-3 prostate	inactive
COc1cc(/C=N/NC(=O)c2cnn3c2NC(c2ccccc2)C3)cc(OC)c1OC (centres undefined)	PC-3 prostate	inactive
O=C1NC(=S)S/C1=C\c1cccc([N+](=O)[O-])c1	PC-3 prostate	inactive
COc1cccc(C2CC(=O)Nc3cc4c(cc32)CCC4)c1OC (centres undefined)	PC-3 prostate	inactive
COc1cc2oc(-c3ccc(O)cc3)cc(=O)c2c(O)c1I	PC-3 prostate	inactive
Clc1cccc(Cl)c1Nc1ccc2nnc(-c3ccncc3)n2n1	PC-3 prostate	inactive
CCN(CC)c1ccc(/C=C(\C#N)c2cc3ccccc3[nH]2)cc1	PC-3 prostate	inactive
COc1cc2cc(Oc3ccc(NC(=O)Nc4cccc(C(F)(F)F)c4)cc3)c(C)nc2cc1OCCN1CCCCC1	PC-3 prostate	active
Cc1ccc2nc(NC(=O)CSC(=S)N3CCN(Cc4ccccc4)CC3)sc2c1	PC-3 prostate	active
Cc1ccc(S(=O)(=O)c2ccc3[nH]c(=O)[nH]c(=O)c3c2)cc1	PC-3 prostate	inactive
O=c1nc(NO)[nH]c(=O)n1Cc1ccc(F)cc1	PC-3 prostate	inactive
COc1ccc(-c2csc3c2-n2cccc2C3=O)cc1O	PC-3 prostate	inactive
C=C(C)CCCC(C)CC#N (centres undefined)	PC-3 prostate	inactive
O=C(Nc1ccccc1O)c1ccc(NS(=O)(=O)c2cccc3cccnc23)cc1	PC-3 prostate	inactive
CC(=O)Nc1ccc(Sc2ccc([N+](=O)[O-])o2)cc1	PC-3 prostate	inactive
CN1CCN(CCCn2c3c(sc4ncccc43)c(=O)n3nnc(-c4ccccc4)c23)CC1	PC-3 prostate	active
COc1ccc(S(=O)(=O)c2ccc(C(N)=O)cc2)cc1NC(=O)c1[nH]c(C)c2c1CCCCC2=O	PC-3 prostate	inactive
CCCCNNC(=O)c1ccc(Br)cc1	PC-3 prostate	inactive
COc1cccc(OC(=O)c2ccccc2)c1OC(=O)c1ccccc1	PC-3 prostate	inactive
Cn1c(=O)c(S(=O)(=O)c2ccccc2)cc2ccc3c(cnn3-c3ccc(Cl)cc3)c21	PC-3 prostate	inactive
Brc1ccccc1Nc1ccc2nnc(-c3ccncc3)n2n1	PC-3 prostate	inactive
COc1cccc(-c2ccc3c(c2)C2CCN(Cc4ccccc4)C3C2)c1 (centres undefined)	PC-3 prostate	inactive
Cc1c(C)n(CC(O)CNC2CCCCC2C)c2ccccc12 (centres undefined)	PC-3 prostate	active
COc1ccc(/C=C(\C#N)c2cc3ccccc3n2C)cc1	PC-3 prostate	inactive
O=c1ccc2ccccc2o1	PC-3 prostate	inactive
Cc1cc(=O)[nH]n1-c1cc(Cl)ccc1N	PC-3 prostate	inactive
NC(=O)c1cc(I)ccc1NC(=O)COc1ccc(Cl)cc1Cl	PC-3 prostate	inactive
O=C1NC(=O)C2(CCCC2C(=O)O)N1 (centres undefined)	PC-3 prostate	inactive
CC1SC(c2cccc(Oc3ccccc3)c2)N(CCc2cccs2)C1=O (centres undefined)	PC-3 prostate	active
C=C(C)COC(=O)c1ccccc1C(=O)OCC1(C)CO1 (centres undefined)	PC-3 prostate	inactive
